study.system: Integrin alpha-5/beta-1 (Homo sapiens, UniProt P05556+P08648)
Sequence (P05556 21-798 limits assumed): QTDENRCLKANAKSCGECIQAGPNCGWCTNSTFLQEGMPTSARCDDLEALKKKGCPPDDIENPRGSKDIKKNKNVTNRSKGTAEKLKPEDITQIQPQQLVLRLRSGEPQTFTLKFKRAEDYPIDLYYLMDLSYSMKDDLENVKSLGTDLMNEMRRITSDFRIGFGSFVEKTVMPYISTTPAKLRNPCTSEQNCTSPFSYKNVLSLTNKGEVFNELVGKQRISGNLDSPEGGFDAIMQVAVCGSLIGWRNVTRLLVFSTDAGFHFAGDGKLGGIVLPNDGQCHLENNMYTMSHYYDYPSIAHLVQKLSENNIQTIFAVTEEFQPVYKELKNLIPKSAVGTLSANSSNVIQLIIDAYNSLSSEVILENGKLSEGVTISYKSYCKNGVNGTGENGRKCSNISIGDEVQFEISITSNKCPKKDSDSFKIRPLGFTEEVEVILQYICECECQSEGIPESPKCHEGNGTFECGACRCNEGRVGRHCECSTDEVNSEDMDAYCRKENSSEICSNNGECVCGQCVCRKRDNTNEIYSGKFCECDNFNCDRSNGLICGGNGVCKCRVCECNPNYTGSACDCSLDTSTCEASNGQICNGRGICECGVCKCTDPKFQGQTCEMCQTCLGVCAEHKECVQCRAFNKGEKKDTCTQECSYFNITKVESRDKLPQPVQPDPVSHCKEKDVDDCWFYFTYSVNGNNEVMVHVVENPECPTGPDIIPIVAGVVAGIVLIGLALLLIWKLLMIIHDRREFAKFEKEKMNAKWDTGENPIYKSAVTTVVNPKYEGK
Sequence (P08648 42-894 limits assumed): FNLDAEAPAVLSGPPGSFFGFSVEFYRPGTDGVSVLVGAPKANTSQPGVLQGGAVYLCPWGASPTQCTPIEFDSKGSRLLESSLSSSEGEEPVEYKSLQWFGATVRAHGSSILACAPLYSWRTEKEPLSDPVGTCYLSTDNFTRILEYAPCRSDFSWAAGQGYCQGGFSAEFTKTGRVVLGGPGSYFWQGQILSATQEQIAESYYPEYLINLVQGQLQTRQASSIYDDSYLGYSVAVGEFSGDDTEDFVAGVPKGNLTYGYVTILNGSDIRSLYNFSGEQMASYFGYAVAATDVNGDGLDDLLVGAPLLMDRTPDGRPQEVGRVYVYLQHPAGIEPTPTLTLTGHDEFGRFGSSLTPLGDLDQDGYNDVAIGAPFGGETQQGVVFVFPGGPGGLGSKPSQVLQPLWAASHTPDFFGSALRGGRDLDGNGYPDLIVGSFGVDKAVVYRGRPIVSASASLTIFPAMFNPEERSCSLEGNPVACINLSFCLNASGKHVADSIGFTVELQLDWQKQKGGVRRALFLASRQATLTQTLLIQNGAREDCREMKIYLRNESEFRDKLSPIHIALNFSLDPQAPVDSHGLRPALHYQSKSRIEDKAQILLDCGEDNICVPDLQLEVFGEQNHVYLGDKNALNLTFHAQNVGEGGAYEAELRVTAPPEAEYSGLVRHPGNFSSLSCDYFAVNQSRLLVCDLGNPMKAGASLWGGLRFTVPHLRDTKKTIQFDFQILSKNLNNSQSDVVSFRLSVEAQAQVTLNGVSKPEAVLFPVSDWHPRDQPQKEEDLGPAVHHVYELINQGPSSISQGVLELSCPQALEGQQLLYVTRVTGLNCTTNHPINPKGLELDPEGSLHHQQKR
Sequence (P08648 895-1049 limits assumed): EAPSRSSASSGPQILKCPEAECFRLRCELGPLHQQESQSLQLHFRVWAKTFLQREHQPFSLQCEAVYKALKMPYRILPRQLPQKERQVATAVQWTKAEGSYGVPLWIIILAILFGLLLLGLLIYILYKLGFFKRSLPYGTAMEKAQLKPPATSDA
assay.details: Inhibition of human integrin alpha5beta1-mediated human SW480 cell adhesion to fibronectin preincubated for 15 to 30 mins followed by 60 min incubation for adhesion by crystal violet staining based cell adhesion assay
readout.label: IC50 (µM)

[I] N=C(N)NCCCC(=O)Nc1ccc(C[C@H](NC(=O)[C@@H]2CCCCN2S(=O)(=O)c2ccccc2)C(=O)O)cc1
[II] N=C(N)Nc1cccc(C(=O)Nc2ccc(C[C@H](NC(=O)[C@@H]3CCCN3S(=O)(=O)c3ccccc3)C(=O)O)cc2)c1
Exam item: // max by IC50 over [ I , II ] Give the label under which the chosen entry appears.
Marked response: I
(I: 3.2 µM, II: 0.063 µM)
